assay.system: T1, hIL2-DM-his (human, UniProt P60568 21-153)
T1 construct: expressed in ExpiCHO-S cells, nickel-column purified; also called hIL-2 mutein containing two point mutations K64G and N90R (with a his-tag); not shown: his-tag
T1 sequence (P60568 21-153 K84G/N110R): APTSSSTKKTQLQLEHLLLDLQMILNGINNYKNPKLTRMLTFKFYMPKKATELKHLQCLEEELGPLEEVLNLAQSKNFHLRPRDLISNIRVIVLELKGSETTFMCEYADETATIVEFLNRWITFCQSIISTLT
experiment.summary: BLI ForteBio, Ab on Protein A sensor
Listed binders paired with reported Kd
Number only, in nM; omit the unit.

For orientation, consider the following solved cases.
[[record]]
binder = "K1G12 (antibody, V domains shown) VH: QVQLVQSGAEVKKPGATVKISCKVSGDTITAYYMHWVRQAPGQGLEWIGRIDPDDDSTKYAENFKGRVTITADTSTDTAYMELSSLRSEDTAVYYCTTITFLYTRELRWFAYWGQGTLVTVSS VL: DIVLTQSPATLSLSPGERATLSCQASQYISNYLSWYQQKPGQAPRLLIYQATSLASGIPARFSGSRSGTDFTLTISSLEPEDFAVYYCLQHYSTPYTFGQGTKLEIK"
readout_name = "Kd"
result_value = 0.927

[[record]]
binder = "K3G6 (antibody, V domains shown) VH: QVQLVQSGAEVKKPGATVKISCKVSGDTITAYYMHWVRQAPGQGLEWIGRIDPDDDSTKYAENFKGRVTITADTSTDTAYMELSSLRSEDTAVYYCTTITFYYSRELRWFAYWGQGTLVTVSS VL: DIVLTQSPATLSLSPGERATLSCQASQYIGNYLSWYQQKPGQAPRLLIYQATSLASGIPARFSGSRSGTDFTLTISSLEPEDFAVYYCLQHYSTPYTFGQGTKLEIK"
readout_name = "Kd"
result_value = 2.13

[[record]]
binder = "K3G9 (antibody, V domains shown) VH: QVQLVQSGAEVKKPGATVKISCKVSGDTITAYYMHWVRQAPGQGLEWIGRIDPEDDSTKYAENFKGRVTITADTSTDTAYMELSSLRSEDTAVYYCTTITFLYTRELRWFAYWGQGTLVTVSS VL: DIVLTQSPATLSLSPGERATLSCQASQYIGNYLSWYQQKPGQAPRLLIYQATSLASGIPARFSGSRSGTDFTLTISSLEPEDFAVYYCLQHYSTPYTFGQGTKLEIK"
readout_name = "Kd"
result_value = 1.49


Prompt: Report Kd for K2G3 (antibody, V domains shown) VH: QVQLVQSGAEVKKPGATVKISCKVSGDTITAYYMHWVRQAPGQGLEWIGRIDPDDDSTKYAENFKGRVTITADTSTDTAYMELSSLRSEDTAVYYCTTVTFYYSRELRWFAYWGQGTLVTVSS VL: DIVLTQSPATLSLSPGERATLSCQASQYISNYLSWYQQKPGQAPRLLIYSATSLASGIPARFSGSRSGTDFTLTISSLEPEDFAVYYCLQHYSTPYTFGQGTKLEIK please.
Completion: 1.32

Prompt: Report Kd for K4G7 (antibody, V domains shown) VH: QVQLVQSGAEVKKPGATVKISCKVSGDTITAYYMHWVRQAPGQGLEWIGRIDPEDDSTKYAENFKGRVTITADTSTDTAYMELSSLRSEDTAVYYCTTITFYYTRELRWFAYWGQGTLVTVSS VL: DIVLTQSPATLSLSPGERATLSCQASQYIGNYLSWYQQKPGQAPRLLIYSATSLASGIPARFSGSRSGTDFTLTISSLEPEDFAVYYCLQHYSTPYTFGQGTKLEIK please.
Completion: 3.2

Reference source: patent US20250346644A1
